Cited source for all entries: PubChem BioAssay (NCI)

- Tested on: ACHN renal
- method: NCI tumour cell line growth inhibition, 48 h

{"columns": ["compound", "tested.target", "TGI"],
 "data": [
  ["COc1cccc(-c2ccc3c(c2)C2CCN(Cc4ccccc4)C3C2)c1 (stereo not given)", "ACHN renal", "38.1 µM"],
  ["COC(=O)/C(=N/Nc1cccc(Cl)c1)C(C(=O)C(=O)Nc1cccc(Cl)c1C)c1nc2ccccc2nc1C (stereo not given)", "ACHN renal", "> 100 µM"],
  ["Cc1cn(C2C=CC(CO)O2)c(=O)[nH]c1=O (stereo not given)", "ACHN renal", "> 1000 µM"],
  ["C=CCc1cc(-c2cc(CC=C)c(O)c(CN(CC)CC)c2)cc(CN(CC)CC)c1O", "ACHN renal", "> 100 µM"],
  ["O=c1cc(NNc2cccc(F)c2)[nH]c(=O)[nH]1", "ACHN renal", "> 100 µM"],
  ["Cc1cc(-c2ccccc2)nc(Nc2nc3ccccc3o2)n1", "ACHN renal", "> 100 µM"],
  ["C/C(=C\\c1ccccc1)C(=O)NCc1ccc(C(=O)NCCc2ccccc2)cc1", "ACHN renal", "> 100 µM"],
  ["CN(C)c1ccc(/C=C/c2ccc(/C=C/c3ccc(N(C)C)cc3)cc2)cc1", "ACHN renal", "> 100 µM"],
  ["ON(Cc1ccccc1)C(=S)c1ccccc1", "ACHN renal", "62.1 µM"],
  ["COc1cccc(-c2nn(-c3ccccc3)cc2-c2ccnc(NCCNC(=O)Nc3cccc(C(F)(F)F)c3)c2)c1", "ACHN renal", "10.4 µM"],
  ["O=S(OC12CC3CC(CC(C3)C1)C2)c1cc(Cl)cc(Cl)c1OCc1ccccc1 (stereo not given)", "ACHN renal", "> 100 µM"],
  ["Cc1ccc(NC(=O)C2C(=O)N(c3ccc(C)c(C)c3)C(=O)/C2=N\\NC(N)=O)cc1C (stereo not given)", "ACHN renal", "> 100 µM"],
  ["CCN1C(=O)CCCc2c1ccc(Nc1ncc(Cl)c(NC3[C@@H](C(N)=O)[C@@H]4C=C[C@H]3C4)n1)c2OC (stereo not given in full)", "ACHN renal", "> 30.2 µM"],
  ["CN(COC(=O)c1ccccc1)c1nc(N(C)COC(=O)c2ccccc2)nc(N(C)COC(=O)c2ccccc2)n1", "ACHN renal", "78.7 µM"],
  ["O=C1Nc2ccccc2Cn2c1cc1oc(-c3ccccc3)cc12", "ACHN renal", "> 100 µM"],
  ["O=C1NC(=O)C(=Nc2cccc3c(=O)[nH][nH]c(=O)c23)C(c2nc3ccccc3s2)C1=O (stereo not given)", "ACHN renal", "> 100 µM"],
  ["COC1=C(C)C(=O)c2c(c(CCCl)c3n2CCC3O)C1=O (stereo not given)", "ACHN renal", "6.83 µM"],
  ["Nc1ccccc1.[C-]#[O+].[C-]#[O+].[C-]#[O+].[C-]#[O+].[C-]#[O+].[Cr]", "ACHN renal", "> 10 µM"],
  ["CCCCC(C)C(OC(=O)CC(CC(=O)O)C(=O)O)C(CC(C)CC(O)CCCCC(O)CC(O)C(C)N)OC(=O)CC(CC(=O)O)C(=O)O (stereo not given)", "ACHN renal", "> 100 µM"],
  ["Cc1cn(C2CC(N)C(C(=O)NCC(=O)O)O2)c(=O)[nH]c1=O (stereo not given)", "ACHN renal", "> 100 µM"]
]}

----------
- Test system: A549 NSCLC
- method: NCI tumour cell line growth inhibition, 48 h

{"columns": ["compound", "tested.target", "TGI"],
 "data": [
  ["CS(=O)(=O)NNS(=O)(=O)c1ccccc1", "A549 NSCLC", "> 100 µM"],
  ["COC(=O)/C(=N/Nc1cccc(Cl)c1)C(C(=O)C(=O)Nc1cccc(Cl)c1C)c1nc2ccccc2nc1C (configuration not stated)", "A549 NSCLC", "> 100 µM"],
  ["COc1cccc(-c2ccc3c(c2)C2CCN(Cc4ccccc4)C3C2)c1 (configuration not stated)", "A549 NSCLC", "31.8 µM"],
  ["O=C(O)C[C@@H]1[C@@H](O)[C@@H](O)CN2C(=O)c3ccccc3[C@H]12", "A549 NSCLC", "> 100 µM"],
  ["O=C1c2ccccc2C(=O)c2sc(Nc3ccccc3C(F)(F)F)nc21", "A549 NSCLC", "57.2 µM"],
  ["O=c1[nH]c(=O)n(C2CC(O)C(CO)O2)cc1NN=NCCCc1ccccc1 (configuration not stated)", "A549 NSCLC", "> 100 µM"],
  ["CC(C)(C)c1ccc(OC(=O)Nc2ccc(O)c(C(=O)O)c2)cc1", "A549 NSCLC", "> 100 µM"],
  ["O=C(CCCCCCCCC(=O)N1C(=O)CC(=O)N(c2ccccc2)C1=S)N1C(=O)CC(=O)N(c2ccccc2)C1=S", "A549 NSCLC", "> 100 µM"],
  ["CC(=O)OCc1cncn1S(=O)(=O)c1ccc(C)cc1", "A549 NSCLC", "> 100 µM"],
  ["Fc1ccc(N=C/C=C/Nc2ccc(F)cc2)cc1", "A549 NSCLC", "21.8 µM"],
  ["CN(C)C(=Nc1nc(=[N+](C)C)ss1)N(C)C", "A549 NSCLC", "> 100 µM"],
  ["COC(=O)C(=CNC(N)=O)C(=O)OC", "A549 NSCLC", "> 100 µM"],
  ["COC(=O)[C@H]1NC(=O)CCSSC1(C)C", "A549 NSCLC", "> 100 µM"],
  ["Cc1ccc(C(NC(=O)c2ccccc2)c2ccc3cccnc3c2O)cc1 (configuration not stated)", "A549 NSCLC", "12.7 µM"],
  ["CN(C)c1ccc(C=C2C(=O)N(c3ccccc3)N(c3ccccc3)C2=O)cc1", "A549 NSCLC", "> 100 µM"],
  ["O=c1sc2c(s1)-c1sc(=O)sc1SS2", "A549 NSCLC", "> 100 µM"],
  ["CC(C)CCCC(C)[C@H]1CC[C@H]2[C@@H]3CC[C@H]4C[C@@H](CCC=C(c5cc(Cl)c(O)c(C(=O)OC(C)C)c5)c5cc(Cl)c(O)c(C(=O)OC(C)C)c5)CC[C@]4(C)[C@H]3CC[C@]12C (some centres not stated)", "A549 NSCLC", "> 50 µM"],
  ["Brc1ccc2c3c1[C@H]1O[C@H]1c1cccc(c1-3)[C@@H]1O[C@H]21", "A549 NSCLC", "49.4 µM"],
  ["CC(=O)OC(Cc1ccc2ccccc2n1)(C(F)(F)F)C(F)(F)F", "A549 NSCLC", "44.3 µM"],
  ["Cn1c(=O)c(NC(=O)C(Cl)(Cl)Cl)nc2ccccc21", "A549 NSCLC", "> 100 µM"],
  ["CC1(C)O[C@@H](CCl)C[C@H](C#N)O1", "A549 NSCLC", "> 100 µM"],
  ["O=C1C=C2SC3C[C@@]24CC1[N+]1=c2c4c(c(O)c4c2=C(C=N4)CC1)N3", "A549 NSCLC", "21.2 µM"]
]}

----------
- System: SK-MEL-28 melanoma
- method: NCI tumour cell line growth inhibition, 48 h
# key: entry, value: TGI

{"columns": ["compound", "TGI"],
 "data": [
  ["CCOC(=O)c1sc2nc(SC)nc3c2c1NCN3c1ccc(F)c(F)c1", "> 100 µM"],
  ["COc1ccc2c(c1)C/C(=C\\c1cccc3ccccc13)C2=O", "> 100 µM"],
  ["Cc1ccc(/C=C2\\CN(C(=O)C(Cl)Cl)C/C(=C\\c3ccc(C)cc3)C2=O)cc1", "1.19 µM"],
  ["COc1cc(C2SC(C)C(=O)N2c2ccc(-c3csc(NS(=O)(=O)c4ccc(Cl)c(OC)c4)n3)cc2)ccc1O (stereo not given)", "> 100 µM"],
  ["Cc1ccc2c(=O)c(C(=O)Nn3c(C)csc3=S)c[nH]c2n1", "> 100 µM"],
  ["CCN(CC)C(=S)Nc1ccc(-c2cc3ccc(O)cc3oc2=O)cc1", "> 100 µM"],
  ["COc1cc2cc(C(=O)N3CC(CCl)c4c3cc(NC(=O)OCc3ccc([N+](=O)[O-])cc3)c3ccccc43)[nH]c2c(OC)c1OC (stereo not given)", "> 100 µM"],
  ["N[C@@H]1C(=O)N2C(C(=O)OC(c3ccccc3)c3ccccc3)=C(CCl)CS[C@H]12", "53.8 µM"],
  ["O=c1c2c3c(sc2nc2n1N=C(c1ccc(Cl)cc1)CS2)CCCC3", "> 100 µM"],
  ["COc1cccc(/C=N/NC(=S)NC2CC3CCC2C3)c1O (stereo not given)", "33.5 µM"],
  ["O=c1sc2c(s1)-c1sc(=O)sc1SS2", "> 100 µM"],
  ["CCN(CC)c1ccc(N=Nc2ccc([N+](=O)[O-])cc2OC(=O)/C=C/c2ccccc2)c(OC(=O)/C=C/c2ccccc2)c1", "> 100 µM"],
  ["Cc1cc(S(=O)(=O)/N=C/N(C)C)c(SC(=O)c2ccc(Cl)cc2)cc1Cl", "> 100 µM"],
  ["Clc1ccc(-c2nnc(-c3cccc4ccccc34)o2)cc1Cl", "> 100 µM"],
  ["CCCCCCCCCCCCCCCCNCCCN(C)CCCN", "26.6 µM"],
  ["CCCCCCNC(=O)Oc1ccc(/C(=C(/C)Cc2ccc(OC)cc2)c2ccc(OCCCN(C)C)cc2)cc1", "28.1 µM"],
  ["COC(=O)C1C=CCON2CCc3c(n(C)c4ccccc34)C12 (stereo not given)", "> 100 µM"],
  ["C=CCc1cc(-c2cc(CC=C)c(O)c(CN(CC)CC)c2)cc(CN(CC)CC)c1O", "80.6 µM"],
  ["C(/Cc1ccc2c(c1)OCO2)=N\\NC1=NCCN1", "> 100 µM"],
  ["COc1cc(C2=NNC(=O)c3ccccc3N2c2nc(-c3cccs3)nc3ccc(Br)cc23)cc(OC)c1OC", "32.3 µM"]
]}
